Values from the supplement of paper PMC11451515

Please respond with reported cell viability for every item in the list.
- Tested on: NOMO1
- TEST_SUMMARY: cell viability relative to DMSO control; higher = less cytotoxic
- ASSAY_CONDITIONS: RPMI 5 mM glucose + 10% dialyzed FBS; 48 h; 0.569 µM
Give your result in % as a bare value.

Task item: Query for NOMO1: what cell viability does the record show for Cc1ccc(NC(=O)c2ccc(CN3CCN(C)CC3)cc2)cc1Nc1nc(-c2cccnc2)cs1 ?
Reply: 87.1

Task item: Try this compound next: CC(=O)Nc1ccc(OC[C@](C)(O)C(=O)Nc2ccc([N+](=O)[O-])c(C(F)(F)F)c2)cc1
Reply: 85.1

Task item: Try this compound next: COc1cc2c(cc1-c1c(C)noc1C)ncc1[nH]c(=O)n([C@H](C)c3ccccn3)c12
Reply: 118
